All figures here come from paper PMC5540273.

Collected %Inh values appear next to each entry.
system: RPS6KA5(Kin.Dom.1-N-terminal); settings: concentration: 1 μM,replicates: in singlicate; n = 1;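 note: KINOMEscan kinase panel screen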
Lab note: write values as number then unit, every time.

Some solved entries appear below for comparison.
compound="COC(=O)c1cccc(NC(=O)NC2CCN(c3ccnc(NCc4ccc(F)cc4)n3)CC2)c1 [GSK1379860]" system_name=RPS6KA5(Kin.Dom.1-N-terminal) observed_property=%Inh result=7%
compound="C[C@@H](Oc1cc(-n2cnc3ccc(-c4ccncc4)cc32)sc1C(N)=O)c1ccccc1Cl [GSK483724]" system_name=RPS6KA5(Kin.Dom.1-N-terminal) observed_property=%Inh result=25%
compound="CS(=O)c1ccc(-c2coc3ccc(-c4n[nH]c(=O)o4)cc23)cc1 (centres unmarked)" system_name=RPS6KA5(Kin.Dom.1-N-terminal) observed_property=%Inh result=13%

Input line: What value of %Inh on RPS6KA5(Kin.Dom.1-N-terminal) does CC(C)S(=O)(=O)N1CCN(Cc2ccc3c(c2)nc(NC(=O)c2ccsc2)n3C[C@H](O)c2ccccc2)CC1 [GW635815] have?
Output line: 12%

Input line: Also check CCN1CCN(CCCC(=O)Nc2n[nH]c3nc(-c4ccc(O)cc4)c(Br)cc23)CC1 [SB-731579]
Output line: 4%

* * *

system: DYRK1A; details: concentration: 1 μM,replicates: in singlicate; n = 1
# %Inh annotations
Supply the numeric figure in %, leaving out any unit text.

Please review the entries below; each comes with its answer.
molecule=Cn1cc(-c2cccc3c(N)c(C(N)=O)nnc23)cn1 result_number=56
molecule=O=C(Nc1ccccc1)c1cccc(Oc2ccc3nccn3n2)c1 result_number=0
molecule="CCCC(=O)Nc1n[nH]c2ncccc12 [SB-601436]" result_number=0

Input line: Value lookup for %Inh; key = c1ccc(Oc2ccc(Nc3ccnc4ccc(-c5ccccn5)cc34)cc2)cc1 [GW407034]
Output line: 24

Input line: Okay, and O=c1[nH]cc(-c2ccc(O)cc2)c2sc(-c3ccncc3)cc12 [GSK1033723] ?
Output line: 90

Input line: Please give the result for N#Cc1cccc(C(=O)NC2CCN(c3ccnc(Nc4ccc(F)cc4)n3)C2)c1 (stereo not drawn) [GSK1379708] too.
Output line: 21

* * *

test system: DRAK1; construct: gene STK17A; conditions: concentration: 1 μM,replicates: in singlicate; n = 1
Answer No if %Inh is under 7%, and Yes if it is 7% or more.

Input line: In plain terms: is recorded %Inh at least 7% for `O=C(NOCC1CC1)c1cc(Br)c(F)c(F)c1Nc1ccc(I)cc1Cl` ?
Output line: No

Input line: Do the same for `CC(C)c1nc(-c2cccc(NS(=O)(=O)c3ccccc3)c2)c(-c2ccnc(Nc3ccc4c(c3)CN(C)CC4)n2)s1` please
Output line: No

Input line: Cool, now Cc1nnc(-c2ccc3occ(-c4ccc(S(C)=O)cc4)c3n2)o1 (stereo not drawn)
Output line: No

Input line: Could you do the same for `COc1cc2ncn(-c3cc(OCC4CCCCC4)c(C(N)=O)s3)c2cc1OC` , please?
Output line: No

Input line: Another: `Cl.Cl.NC[C@H](CC1CCCCC1)NC(=O)c1ccc(-c2ccnc3[nH]ccc23)s1`
Output line: Yes

Input line: Would you kindly repeat that for `CN(c1ccccc1CNc1nc(Nc2ccc3c(c2)CC(=O)N3)ncc1C(F)(F)F)S(C)(=O)=O` ?
Output line: Yes

Input line: Continue with `C[C@@H](Oc1cc(-n2cnc3cc(-c4cnn(C)c4)ccc32)sc1C(N)=O)c1ccccc1Cl`
Output line: No

Input line: And then `O=C1NCCc2[nH]c(-c3ccncc3)cc21` , what is it?
Output line: Yes

Input line: Please answer likewise for `CNC(=O)c1ccccc1Nc1nc(Nc2cccc(CS(C)(=O)=O)c2)ncc1C.O=CO`
Output line: Yes

* * *

system: AURKC; conditions: concentration: 1 μM,replicates: in singlicate; n = 1
Observed property: %Inh
Please give the number followed by its unit.

compound=NC(=O)c1ccc(-c2cc3ncnc(SCC(=O)O)c3s2)cc1 system_name=AURKC result=33%
compound="C[C@@H](Oc1cc(-n2cnc3ccc(-c4ccncc4)cc32)sc1C(N)=O)c1ccccc1Cl [GSK483724]" system_name=AURKC result=50%
compound="c1ccc(Oc2ccc(Nc3ccnc4ccc(-c5ccccn5)cc34)cc2)cc1 [GW407034]" system_name=AURKC result=4%

Now for another entry.
Input line: Form field: reported %Inh of C[C@@H](Oc1cc(-n2cnc3cc(-c4cnn(C)c4)ccc32)sc1C(N)=O)c1ccccc1Cl [GSK580432]
Output line: 100%

* * *

This section presents compounds with their documented %Inh values.
test system: BTK; conditions: concentration: 1 μM,replicates: in singlicate; n = 1
Respond numerically; units are % and should not be typed.

Illustrative cases are given below, each with its answer.
compound="COC(=O)c1cccc(NC(=O)NC2CCN(c3ccnc(Nc4cc(OC)c(OC)c(OC)c4)n3)C2)c1 (stereo not drawn)" result_number=37
compound=Cc1cccc(-c2nc(Nc3ccncc3)c3sccc3n2)n1 result_number=58
compound=COc1cccc(OC)c1C(=O)Nc1cccc(-c2nn3ccccc3c2-c2ccnc(Nc3cccc(F)c3)n2)c1 result_number=0
compound=O=C(Nc1n[nH]c2cc(-c3ccco3)ccc12)C1CC1 result_number=0

Input line: Need %Inh of `Cn1ccc2ncnc(Oc3ccc(NC(=O)Nc4cccc(C(F)(F)F)c4)c(Cl)c3)c21` , thanks.
Output line: 0

Input line: Try this compound too: `O=C(Nc1cccc(C(F)(F)F)c1)c1cccc(Oc2ccc3nccn3n2)c1`
Output line: 0

* * *

# Lookup of reported %Inh keyed by entry
tested on: MARK4; settings: concentration: 1 μM,replicates: in singlicate; n = 1
# number only, unit % dropped from output

Some compounds with recorded %Inh:
compound="Cc1n[nH]c2cc(Nc3ccnc(Nc4cccc(CN5CCOCC5)c4)n3)ccc12 [GW682569]" system_name=MARK4 readout_unit=% result_number=0
compound="Nc1nccc(-c2ccc3c(N)n[nH]c3c2)n1 [GSK1034945]" system_name=MARK4 readout_unit=% result_number=7
compound=NC(=O)c1ccc(-c2cc3ncnc(SCC(=O)O)c3s2)cc1 system_name=MARK4 readout_unit=% result_number=0

Input line: Tell me the measured %Inh of `O=C(Nc1cccc(Oc2ccc3nccn3n2)c1)Nc1cccc(C(F)(F)F)c1` , please.
Output line: 24

Input line: Cl.c1ccc(Oc2ccc(Nc3ccnc4cc(-c5ccc(CN6CCNCC6)o5)ccc34)cc2)nc1 [GW567142] ?
Output line: 0

* * *

system: LATS2; details: concentration: 1 μM,replicates: in singlicate; n = 1
Here, each record is paired with measured %Inh data.
Write the answer as a number in %, unit excluded.

Reference set, count: 2
compound=C[C@@H]1CCN(C(=O)N2CCCC2)C[C@@H]1N(C)c1ncnc2[nH]ccc12 readout_unit=% result_number=10
compound=COc1cccc(C2=C(Nc3cccc(Cl)c3)C(=O)NC2=O)c1 readout_unit=% result_number=0

Input line: Hello, I am looking for reported %Inh with LATS2 for `CS(=O)(=O)Nc1ccc(-c2ccnc3[nH]ccc23)cc1` . Could you help?
Output line: 82

Input line: Input `O=C(NOCC1CC1)c1cc(Br)c(F)c(F)c1Nc1ccc(I)cc1Cl`
Output line: 0

Input line: Proceed to `Cc1ccc(CC(=O)N2CCc3cc(-c4cn(C)c5ncnc(N)c45)ccc32)cc1`
Output line: 9

Input line: Ok, now `CN1CCN(CCNc2nc3cc(Oc4ccc(NC(=O)Nc5cc(C(F)(F)F)ccc5F)cc4)ccc3[nH]2)CC1.Cl.Cl`
Output line: 0

Input line: Same again, this time with `O=C(Nc1cccc(Oc2ccc3nccn3n2)c1)Nc1cccc(C(F)(F)F)c1`
Output line: 0

Input line: Would you mind doing `O=C(Nc1ccccc1)c1cccc(Oc2ccc3nccn3n2)c1` as well?
Output line: 91.6

Input line: Try this compound next: `Cn1ccc2ncnc(Oc3ccc(NC(=O)Nc4cncc(C(F)(F)F)c4)c(Cl)c3)c21`
Output line: 0

Input line: Now the same for `Cl.Cl.NC[C@H](CC1CCCCC1)NC(=O)c1ccc(-c2ccnc3[nH]ccc23)s1`
Output line: 95.3

Input line: Ok, now `CC(C)S(=O)(=O)N1CCN(Cc2ccc3c(c2)nc(NC(=O)c2ccsc2)n3C[C@H](O)c2ccccc2)CC1`
Output line: 0

Input line: `Cc1ccc(C(=O)Nc2ccc(Oc3ccc4nc(NC(=O)C5CC5)cn4c3)c(F)c2)c(=O)n1-c1ccccc1` , same question.
Output line: 0

Input line: Also need `Cn1ccc2ncnc(Oc3ccc(NC(=O)Nc4cc(C(C)(C)C)on4)c(Cl)c3)c21` , thanks.
Output line: 25

Input line: Input `O=c1[nH]cc(-c2ccc(O)cc2)c2sc(-c3ccncc3)cc12`
Output line: 24

* * *

Reported %Inh by item:
tested on: CDK3; conditions: concentration: 1 μM,replicates: in singlicate; n = 1
# number only, unit % dropped from output

smiles_string=CN(c1ccc2c(c1)nc(NCc1ccc(F)cc1)n2C)c1ccnc(Nc2ccc(CS(C)(=O)=O)cc2)n1.Cl system_name=CDK3 readout_unit=% result_number=6

Input line: May I ask what %Inh has been recorded for `CS(=O)(=O)c1cccc(CNc2nc(Nc3ccc4c(c3)[C@@H]3C[C@@H]4CNC3=O)ncc2C(F)(F)F)c1` ?
Output line: 33

Input line: Also `C[C@@H](Oc1cc(-n2cnc3ccc(-c4ccncc4)cc32)sc1C(N)=O)c1ccccc1Cl` ?
Output line: 36

Input line: Now give it for `Cl.Cl.NC[C@H](CC1CCCCC1)NC(=O)c1ccc(-c2ccnc3[nH]ccc23)s1` too.
Output line: 0
